Values compiled from paper PMC9141032.

# test summary: Metabolic stability in mouse liver microsomes
# experimental conditions: mouse, microsomes
measure name: half-life at 1 μM (min)

- compound: "CCOP(=O)(OCC)[C@]1(c2ccccc2)N=C[C@H]2C(=O)N(c3ccc(F)c(Cl)c3)C(=O)[C@H]21 (racemic)"
  measure name: "half-life at 1 μM"
  scale unit: "min"
  assay value: 16.2

====

# test summary: In vivo pharmacokinetics in plasma
# Parameters: species or system mouse
# experimental conditions: male, CD1, mouse, ip; plasma, mice, 10 mg/kg intraperitoneal
# Experimental: After treatment, mice were euthanized, and the plasma and brain were collected. Male CD1 mice were supplied by the Laboratory Animal Service of the University of Granada (Granada, Spain) and housed in the Animal Facilities of the Center of Biomedical Investigation of the University of Granada. […] Calculations were performed using noncompartmental analysis of plasma data after intraperitoneal injection by means of PK Solver 2.0. Basic PK parameters were calculated.

- compound: "CCOP(=O)(OCC)[C@]1(c2ccccc2)N=C[C@H]2C(=O)N(c3ccc(F)c(Cl)c3)C(=O)[C@H]21 (racemic)"
  scale unit: "min"
  Tmax: 15

====

# test summary: In vivo pharmacokinetics in brain
# experimental conditions: male, CD1, mouse, ip, mice, 10 mg/kg intraperitoneal

- molecule: "CCOP(=O)(OCC)[C@]1(c2ccccc2)N=C[C@H]2C(=O)N(c3ccc(F)c(Cl)c3)C(=O)[C@H]21 (racemic)"
  scale unit: "h"
  half-life: 4.28

====

# test summary: Metabolic stability in human liver microsomes
# Assay type: in vitro ADME
# experimental conditions: human, human liver microsomes, pH 7.4; HLM, 1 µM, 1 mg/mL protein
measure name: half-life at 1 μM (min)

- molecule: "CCOP(=O)(OCC)[C@]1(c2ccccc2)N=C[C@H]2C(=O)N(c3ccc(F)c(Cl)c3)C(=O)[C@H]21 (racemic) [B06]"
  scale unit: "min"
  assay value: 28.4

====

# test summary: In vivo pharmacokinetics in plasma
# Set-up: species or system mouse
# experimental conditions: male, CD1, mouse, ip; plasma, mice, 10 mg/kg intraperitoneal; read-out: AUC0–1440 (converted)

- compound: "CCOP(=O)(OCC)[C@]1(c2ccccc2)N=C[C@H]2C(=O)N(c3ccc(F)c(Cl)c3)C(=O)[C@H]21 (racemic)"
  AUC(0-t), ng·h/mL: 2950

====

# test summary: In vivo pharmacokinetics in brain
# experimental conditions: male, CD1, mouse, in vivo, ip, mice, 10 mg/kg intraperitoneal

- compound: "CCOP(=O)(OCC)[C@]1(c2ccccc2)N=C[C@H]2C(=O)N(c3ccc(F)c(Cl)c3)C(=O)[C@H]21 (racemic)"
  AUC(0-inf) [ng·h/mL]: 3310

====

# test summary: In vivo pharmacokinetics in brain
# experimental conditions: male, CD1, mouse, in vivo, ip, mice, 10 mg/kg intraperitoneal, read-out: AUC0–480 (converted)
measure name: AUC(0-t) (ng·h/mL)

- compound: "CCOP(=O)(OCC)[C@]1(c2ccccc2)N=C[C@H]2C(=O)N(c3ccc(F)c(Cl)c3)C(=O)[C@H]21 (racemic)"
  scale unit: "ng·h/mL"
  assay value: 2320
